# protocol-details: Inhibition of Plasmodium falciparum recombinant GSK-3 by radiometric protein kinase assay
Field: pIC50. Provide a value for each of the molecules that follow.
Numbers only, as −log10 of the molar value.

1) N#Cc1c(N)nc2sc(C(=O)c3ccc(Cl)c(Cl)c3)c(N)c2c1-c1ccccc1Br 5.42
2) COc1ccc(C(=O)c2sc3nc(N)c(C#N)c(-c4ccccc4I)c3c2N)cc1 5.77
3) COc1ccccc1-c1c(C#N)c(N)nc2sc(C(=O)c3ccccc3)c(N)c12 5.22
4) N#Cc1sc2nc(N)c(C#N)c(-c3ccccc3Br)c2c1N 6.10
5) N#Cc1c(N)nc2sc(C(=O)c3cccc(Cl)c3)c(N)c2c1-c1ccccc1Cl 6.32
6) N#Cc1c(N)nc2sc(C(=O)c3cccc(Cl)c3)c(N)c2c1-c1ccccc1I 6.04

Consider the additional molecule presented here.
Item under review: N#Cc1c(N)nc2sc(C(=O)c3ccc(Cl)c(Cl)c3)c(N)c2c1-c1ccccc1I . Reported pIC50?
4.15
